# Method: yeast display, Sf9 membrane polyspecificity reagent, FACS + sequencing; frameworks hold sequencing errors
Assay endpoint: polyreactivity (PSR sort gate)

Residues	Assay endpoint	Observed measurement
QVQLVQSGGGLVQAGGSLRLSCAASGRPSLLMLWDGIDRRLGKKGSWLPLLTLVTPTTYADSVKGRFTISRDNAKNTVYLQMNSLKPEDTAVYYCNADFRPLDHYVNWYYYWGQGTQVTVSS	polyreactivity (PSR sort gate)	low polyreactivity
QVQLVESGGGLVQAGGSLRLSCAASGLTFVPYAMGWSRQAPGNERELFAAITWSGGSTYYADSVKGRFTISRDNAKNTVYLQMNSLKQEDTAVYYCAADFLLSTSTEYYYWGHGTQVTVSS	polyreactivity (PSR sort gate)	high polyreactivity
QVQLVESGGGLVQAGGSLRLSCAASGFIFVDYDMGWYSQAPGKERELVAAINWSGGSTDYADSVKGRFTISRDNAKNTVYLQMNSLKPEDTAVYYCAAEGQDGRFYWGQGTQVTVSS	polyreactivity (PSR sort gate)	low polyreactivity
QVQLVESWGGLVQAGGSLRLSCAASGYIFDRYAMGWYRQAPGKERELVAAISGRGGSTYYADSVKGRFTISRDNAKNTVYLQMNSLKPEDTAVYYCARDVYVRNGQRARYDSWGQGTQVTVSS	polyreactivity (PSR sort gate)	high polyreactivity
QVQLVESGGGIVQAGGSLRLSCAASGSTFFDNAIGWYRQAPGKERELVAAITRGGSKHYADSVMGRFTISRDNAKNTVYLQMNSVKPEDTAVYSCNAQRYRVPYDYWGQGTQVTVSS	polyreactivity (PSR sort gate)	low polyreactivity
QVQLVESGGGLVQAGGSLRLSCAASGFTYYAMGWYRQAPGKERELVAAITRGGSTYYADSVKGRFTISRDNAKNTVYLQMNSLKPEDTAVYYCAVLQRAARLGYNYWGQGTQVTVSS	polyreactivity (PSR sort gate)	high polyreactivity
QVQLVESGGGLVQAGGRLRLSCAASASIFRLYAMGWYRQAPGKERELVAAIRWRAGSTYYADSVKGRFTLSRDNAKNTVYLQMNSLKPEETAVNYCAADAISSAWYAKYDYWGQGTQVTGSS	polyreactivity (PSR sort gate)	high polyreactivity
QVQLVESGGGLVQAGGSLRLSCAASGFTFYYNAMGWYRQAPGKERELVAVISSSGSRTYYADSVKGRFTISRYNAKNTVYLQMNSLKPEDTAVYYCAAARIGTRDYWGQGTQVSVSS	polyreactivity (PSR sort gate)	high polyreactivity
QVQLLESGGGLVQAGGSLRLSCAASGSTFRSYAMGWYRQATGKERELVAAISGRGGNTYYADSVKGRFTISRDNAKNTVYLQMNSLKPEDTAVYYCARKTVYYGSDYWGQGTQVTVSS	polyreactivity (PSR sort gate)	high polyreactivity
QVQLVESGGGLVQAGGSLRLSCAASGLTFWDYAMGWYRQAPGKERELVAGINTRGTSTYYADSVKGRFTISRDNAKNTVYLQMNSLKPEDTAVYYCAAEFFGYWYGIQYDYWGQGTQVTVSS	polyreactivity (PSR sort gate)	high polyreactivity
QVQIVESGGGLVQAGGSLRLSCAASGSTFEVNAMGWYRQAPGKERELVAVITSGGSTNYADSVKGPFTISRDNAKNTVYLQMNSLKPEDTAVYYCAKDSRTLEDYWGQGTQVTVSS	polyreactivity (PSR sort gate)	low polyreactivity
